All figures here come from PubChem BioAssay AID2060603.

Tested on: 422866-222-R5-J1-PDC spheroid viability;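 also: spheroids exposed to agents for seven days before readout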
Assay: Anticancer human tumor 422866-222-R5-J1-PDC patient-derived pancreatic adenocarcinoma cell line growth inhibition [CLK]
Settings: second compound 10 µM; first compound 0.316 µM; hits give low values; spheroids with HUVEC and MSC
Text: A high-throughput screen of multi-cell type tumor spheroids was designed to identify active combinations of […] and targeted small molecules. Complex spheroids include a stromal component modeled by human endothelial cells (HUVEC) and fibroblasts modeled by human mesenchymal stem cells (MSCs). […] Compounds. […] If the clinical Cmax for an agent had not been determined, the highest concentration tested was 10 microM. […]
# note: boundary value 3% maps to not met; viability, T/C below it maps to met

Please review the following examples before continuing.
Query string: Please state whether viability, T/C is below 3% for Nc1ccn(C2OC(CO)C(O)C2(F)F)c(=O)n1 (stereo not drawn) + CN1CCN(c2cc(C(=O)Nc3cc4cc(-c5cnn(C)c5)ccc4cn3)ccn2)CC1
Result string: met

Query string: Please state whether viability, T/C is below 3% for CC1(C)CCC(CN2CCN(c3ccc(C(=O)NS(=O)(=O)c4ccc(NCC5CCOCC5)c([N+](=O)[O-])c4)c(Oc4cnc5[nH]ccc5c4)c3)CC2)=C(c2ccc(Cl)cc2)C1 + CN1CCN(c2cc(C(=O)Nc3cc4cc(-c5cnn(C)c5)ccc4cn3)ccn2)CC1
Result string: met

Query string: Please state whether viability, T/C is below 3% for Nc1ccn(C2OC(CO)C(O)C2(F)F)c(=O)n1 (stereo not drawn) + CNC(=O)c1ccc(Nc2nc(OC3CCCC3)c3c(-c4ccc5nc(C)oc5c4)c[nH]c3n2)c(OC)c1
Result string: not met

Next:
Query string: Please state whether viability, T/C is below 3% for COc1ccc([C@@H](O)c2cc(-c3ncnc4cc(N5CCOCC5)ccc34)c(F)cc2Cl)nn1 + CNC(=O)c1ccc(Nc2nc(OC3CCCC3)c3c(-c4ccc5nc(C)oc5c4)c[nH]c3n2)c(OC)c1
Result string: not met

Query string: Please state whether viability, T/C is below 3% for Nc1ccccc1NC(=O)c1ccc(CNC(=O)OCc2cccnc2)cc1 + CN1CCN(c2cc(C(=O)Nc3cc4cc(-c5cnn(C)c5)ccc4cn3)ccn2)CC1
Result string: met

Query string: Please state whether viability, T/C is below 3% for COc1c(OCCCN2CCOCC2)ccc2c3n(c(=NC(=O)c4cnc(N)nc4)nc12)CCN3 + CNC(=O)c1ccc(Nc2nc(OC3CCCC3)c3c(-c4ccc5nc(C)oc5c4)c[nH]c3n2)c(OC)c1
Result string: not met

Query string: Please state whether viability, T/C is below 3% for CC(CO)NC(=O)c1cc(-c2ccc(Cl)cc2)nn(-c2cnn(C)c2)c1=O (stereo not drawn) + CNC(=O)c1ccc(Nc2nc(OC3CCCC3)c3c(-c4ccc5nc(C)oc5c4)c[nH]c3n2)c(OC)c1
Result string: not met

Query string: Please state whether viability, T/C is below 3% for CC(=O)O[C@H]1C(=O)[C@@]2(C)[C@H]([C@H](OC(=O)c3ccccc3)[C@]3(O)C[C@H](OC(=O)[C@H](O)[C@@H](NC(=O)c4ccccc4)c4ccccc4)C(C)=C1C3(C)C)[C@]1(OC(C)=O)CO[C@@H]1C[C@@H]2O + CN1CCN(c2cc(C(=O)Nc3cc4cc(-c5cnn(C)c5)ccc4cn3)ccn2)CC1
Result string: met
